- Test system: Candida albicans
- experiment description: Inhibition of biofilm formation in RFP-expressing Candida albicans M2396 at 50 uM incubated for 24 hrs by crystal violet staining based analysis relative to control
- Format: functional
observation type: inhibition at 50 µM

>>> df
                                smiles_repr     observation_type  val
0  COc1ccc(C(=C2C=CC(=O)O2)c2ccc(OC)cc2)cc1  inhibition at 50 µM  61%
1    O=C1C=C/C(=C(/Br)c2ccc(C(F)(F)F)cc2)O1  inhibition at 50 µM  75%
2                     CC1=CC(=O)OC1=C(Br)Br  inhibition at 50 µM  38%
3  COc1cccc(C(=C2C=CC(=O)O2)c2cccc(OC)c2)c1  inhibition at 50 µM  53%
4                     O=C1C=C/C(=C(\Cl)I)O1  inhibition at 50 µM  92%
5                 O=C1C=C(CBr)C(=C(Br)Br)O1  inhibition at 50 µM  51%
6                      O=C1C=CC(=C(Cl)Cl)O1  inhibition at 50 µM  21%

Data origin: ChEMBL document CHEMBL5352404
